Value source: patent US20250230147A1

- TARGET_OR_SYSTEM: c-Cbl (Homo sapiens (Human))
- PROCEDURE_DETAILS: C-Cbl LCK Ub TR-FRET assay (c-cbl Lck HTRF)
- Type: biochemical
- PARTICULARS: C-cbl Lck HTRF IC50 relative to Cbl-b Lck HTRF IC50
READOUT: (fold-selectivity)

Recorded results for 7 compounds are shown here.
                                   compound  measured
0  C[C@@H](c1cc2c(c(C(F)(F)F)c1)CN(c1cccc(C3([C@@H](F)c4nncn4C)COC3)c1)C2=O)N1CC(C)(F)C1 [Compound 108]      2.0x
1  C[C@@H]1CN(Cc2cc3c(c(C(F)(F)F)c2)CN(c2cccc(C4([C@@H](F)c5nncn5C)COC4)c2)C3=O)CCCO1 [Compound 119]      1.1x
2  C=CC1(O)CN(Cc2cc3c(c(C(F)(F)F)c2)CN(c2cccc(C4([C@@H](F)c5nncn5C)COC4)c2)C3=O)C1 [Compound 169]      2.2x
3  Cn1cnnc1[C@H](F)C1(c2cccc(N3Cc4c(cc(CN5CCC(C)(O)CC5)cc4C(F)(F)F)C3=O)c2)COC1 [Compound 141]      1.3x
4  CC(C)[C@H]1CNCCN1Cc1cc2c(c(C(F)(F)F)c1)CN(c1cccc(C3([C@@H](F)c4nncn4C)CCC3)c1)C2=O [Compound 216]     0.60x
5  Cn1cnnc1[C@@H](F)[C@@](C)(F)c1cccc(N2Cc3c(cc(CN4CC(C)(F)C4)cc3C(F)(F)F)C2=O)c1 [Compound 32]      2.5x
6  CCCC1(O)CN(Cc2cc3c(c(C(F)(F)F)c2)CN(c2cccc(C4([C@H](F)c5nncn5C)COC4)c2)C3=O)C1 [Compound 172]      2.9x

Lab note: next compound to report on.
# input Missing value: (fold-selectivity), c-Cbl (Homo sapiens (Human)), entry CC(C)C1(O)CN(Cc2cc3c(c(C(F)(F)F)c2)CN(c2cccc(C4([C@@H](F)c5nncn5C)COC4)c2)C3=O)C1 [Compound 183] . Fill in?
# output 2.2x

----------
- TARGET_OR_SYSTEM: c-Cbl (Homo sapiens (Human), UniProt P22681)
- Sequence (P22681 47-435): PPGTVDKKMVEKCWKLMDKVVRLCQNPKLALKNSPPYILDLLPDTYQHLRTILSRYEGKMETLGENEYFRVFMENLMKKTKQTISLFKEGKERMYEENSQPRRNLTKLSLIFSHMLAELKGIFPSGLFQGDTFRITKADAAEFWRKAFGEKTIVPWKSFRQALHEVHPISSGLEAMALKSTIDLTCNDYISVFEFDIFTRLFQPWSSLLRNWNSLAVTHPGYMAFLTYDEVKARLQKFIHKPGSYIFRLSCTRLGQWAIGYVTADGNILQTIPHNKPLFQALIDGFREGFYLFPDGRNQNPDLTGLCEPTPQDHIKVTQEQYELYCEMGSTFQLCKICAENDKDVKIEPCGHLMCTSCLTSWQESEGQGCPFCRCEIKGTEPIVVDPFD
- PROCEDURE_DETAILS: C-Cbl LCK Ub TR-FRET assay (c-cbl Lck HTRF)
- Type: biochemical
READOUT: pIC50
Answers are plain numbers, as −log10 of the molar value.

Hi! Can you tell me pIC50 for each of these compounds?
1. C[C@@H](N)c1cc2c(c(C(F)(F)F)c1)CN(c1cccc(C3([C@@H](F)c4nncn4C)COC3)c1)C2=O
2. Cn1cnnc1[C@H](F)C1(c2cccc(N3Cc4c(cc(CN5CC(C)(O)C5)cc4C(F)(F)F)C3=O)c2)CC1 (single isomer, unassigned)

# output
7.28
7.04

Hi! Can you tell me pIC50 for each of these compounds?
1. Cn1cnnc1[C@H](F)C1(c2cccc(N3Cc4c(cc(CN5CCC6(CC6)C5)cc4C(F)(F)F)C3=O)c2)CC1
2. Cn1cnnc1[C@H](F)C1(c2cccc(N3Cc4c(cc(CN5CCC5)cc4C(F)(F)F)C3=O)c2)COC1
3. Cn1cnnc1[C@H](F)C1(c2cccc(N3Cc4c(cc([C@@H](N)C5CCC5)cc4C(F)(F)F)C3=O)c2)COC1
4. Cn1cnnc1[C@@H](F)C1(c2cccc(NC(=O)c3cc(CN4CC(C)(CO)C4)cc(C4CC4)n3)c2)CC(F)(F)C1
5. CCNc1cc(N2Cc3c(cc(CNC4(C)CCC4)cc3C(F)(F)F)C2=O)cc(C2(Cc3nncn3C)CC(F)(F)C2)c1

# output
1: 7.21; 2: 6.68; 3: 7.20; 4: 7.64; 5: 8.21

Hi! Can you tell me pIC50 for each of these compounds?
1. Cn1cnnc1[C@@H](F)C1(c2cccc(N3Cc4c(cc(CN5CC6(CCC6)C5)cc4C(F)(F)F)C3=O)c2)COC1
2. Cn1cnnc1[C@H](F)C1(c2cccc(N3Cc4c(cc(CN5CCC56COC6)cc4C(F)(F)F)C3=O)c2)COC1
3. Cn1cnnc1[C@@H](F)C1(c2cccc(N3Cc4c(cc(CNC5(C)CCC5)cc4C(F)(F)F)C3=O)c2)CC(F)(F)C1
4. CC(C)[C@H]1CNCCN1Cc1cc2c(c(C(F)(F)F)c1)CN(c1cccc(C3(Cc4nncn4C)CC(F)(F)C3)c1)C2=O
5. CC(C)[C@H]1CN(C)CCN1Cc1cc2c(c(C(F)(F)F)c1)CN(c1cccc(C3([C@H](F)c4nc(F)cn4C)COC3)c1)C2=O
6. CC(C)[C@@H]1CN(Cc2cc3c(c(C(F)(F)F)c2)CN(c2cccc(C4([C@@H](F)c5nncn5C)COC4)c2)C3=O)CCN1

# output
6.51
6.46
7.89
7.08
6.46
7.62

----------
- TARGET_OR_SYSTEM: c-Cbl (Homo sapiens (Human))
- PROCEDURE_DETAILS: C-Cbl LCK Ub TR-FRET assay (c-cbl Lck HTRF)
- Assay type: biochemical
- PARTICULARS: C-cbl Lck HTRF IC50 relative to Cbl-b Lck HTRF IC50
READOUT: (fold-selectivity)

Recorded results for 5 compounds are shown here.
                                   compound             readout  measured
0  Cn1cnnc1[C@@H](F)C1(c2cccc(N3Cc4c(cc(CN5CC6(C5)CC6(F)F)cc4C(F)(F)F)C3=O)c2)COC1  (fold-selectivity)      3.2x
1  Cn1cnnc1[C@H](F)C1(c2cccc(N3Cc4c(cc(CN5CC(C)(CCl)C5)cc4C(F)(F)F)C3=O)c2)COC1  (fold-selectivity)      1.5x
2  Cn1cnnc1CC1(c2cc(NC3CCCC3)nc(N3Cc4c(cc(CNC5(C)CCC5)cc4C(F)(F)F)C3=O)c2)COC1  (fold-selectivity)    (1.3x)
3  Cn1cnnc1CC1(c2cc(OC3CCCC3)cc(N3Cc4c(cc(CNC5(C)CCC5)cc4C(F)(F)F)C3=O)c2)COC1  (fold-selectivity)    (1.6x)
4  CC(C)[C@H]1CN(C)CCN1Cc1cc2c(c(C(F)(F)F)c1)CN(c1cc(C3([C@H](F)c4nncn4C)CCC3)cc(NCC3CC3)n1)C2=O  (fold-selectivity)    (1.4x)

Hi! Can you tell me (fold-selectivity) for each of these compounds?
1. Cn1cnnc1[C@H](F)C1(c2cccc(N3Cc4c(cc(CN5CC(C)(CO)C5)cc4C(F)(F)F)C3=O)c2)COC1
2. Cn1cnnc1[C@@H](F)C1(c2cccc(N3Cc4c(cc(CN5CCC[C@@H]5CO)cc4C(F)(F)F)C3=O)c2)COC1
3. C=CC1(O)CN(Cc2cc3c(c(C(F)(F)F)c2)CN(c2cccc(C4([C@H](F)c5nncn5C)COC4)c2)C3=O)C1
4. Cc1ccnn1CC1(c2cccc(N3Cc4c(cc(CN5CCN(C)C[C@@H]5C(C)C)cc4C(F)(F)F)C3=O)c2)COC1
5. COC[C@@H]1CCCN1Cc1cc2c(c(C(F)(F)F)c1)CN(c1cccc(C3([C@@H](F)c4nncn4C)COC3)c1)C2=O
6. Cn1cnnc1[C@H](F)C1(c2cccc(N3Cc4c(cc(CN5CC(C)(O)C5)cc4C(F)(F)F)C3=O)c2)CC1 (single isomer, unassigned)
7. Cn1cnnc1[C@H](F)C1(c2cccc(N3Cc4c(cc(CN5CC(O)(C6CC6)C5)cc4C(F)(F)F)C3=O)c2)COC1

# output
1: 2.2x; 2: 1.1x; 3: 2.5x; 4: (1.3x); 5: 3.4x; 6: 1.4x; 7: 1.3x

----------
- TARGET_OR_SYSTEM: c-Cbl (Homo sapiens (Human), UniProt P22681)
- PROCEDURE_DETAILS: C-Cbl LCK Ub TR-FRET assay (c-cbl Lck HTRF)
- Type: biochemical
Please go through the items and note down their log10 of IC50.
# log10 transformed; quantity=IC50; unit=nM

Recorded results for 3 compounds are shown here.
>>> print(df.to_string())
                                   compound        readout  measured
0  COCC1CCN(Cc2cc3c(c(C(F)(F)F)c2)CN(c2cccc(C4([C@@H](F)c5nncn5C)COC4)c2)C3=O)CC1 [Compound 145]  log10 of IC50      2.26
1  CC(C)[C@@H]1CN(Cc2cc3c(c(C(F)(F)F)c2)CN(c2cccc(C4([C@@H](F)c5nncn5C)COC4)c2)C3=O)CCN1C [Compound 218]  log10 of IC50      1.46
2  Cn1cnnc1[C@@H](F)C1(c2cccc(N3Cc4c(cc(Oc5cn[nH]c5)cc4C(F)(F)F)C3=O)c2)COC1 [Compound 117]  log10 of IC50      2.88

Hi! Can you tell me log10 of IC50 for each of these compounds?
1. Cn1cnnc1CC1(c2cccc(N3Cc4c(cc(CN5CCN[C@@H](C6CC6)C5)cc4C(F)(F)F)C3=O)c2)CC(F)(F)C1 [Compound 431]
2. COCCN1CCC(Nc2cc(C3(Cc4nncn4C)CCC3)cc(N3Cc4c(cc(CNC5(C)CCC5)cc4C(F)(F)F)C3=O)n2)CC1 [Compound 302]
3. Cn1cnnc1[C@@H](F)C1(c2cccc(N3Cc4c(cc(CN5CC(C)(O)C5)cc4C(F)(F)F)C3=O)c2)COC1 [Compound 162]

# output
1. 1.62
2. 2.82
3. 2.52
